For each record, write down the corresponding EC50 (FLIPR).
Target: rat NMUR2 (rat, UniProt Q9ESQ4 1-395)
Sequence (Q9ESQ4 whole entry): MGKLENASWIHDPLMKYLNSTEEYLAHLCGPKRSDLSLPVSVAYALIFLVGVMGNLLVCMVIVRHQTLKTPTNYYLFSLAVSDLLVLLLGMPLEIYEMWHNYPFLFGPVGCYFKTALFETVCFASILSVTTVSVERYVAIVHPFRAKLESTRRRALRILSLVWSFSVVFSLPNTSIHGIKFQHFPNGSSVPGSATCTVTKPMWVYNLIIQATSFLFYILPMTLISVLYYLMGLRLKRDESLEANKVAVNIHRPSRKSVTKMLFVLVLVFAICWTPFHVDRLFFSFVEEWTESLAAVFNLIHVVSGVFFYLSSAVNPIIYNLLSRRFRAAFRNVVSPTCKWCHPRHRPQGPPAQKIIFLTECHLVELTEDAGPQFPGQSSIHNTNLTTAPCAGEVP
Assay: cell-based or functional assay
No end group written: not given here. *: point of attachment. (PEG)2 40 kDa = branched PEG of 40 kDa linked via the Cys side-chain thiol (code C2 = Cys(PEG)2 40 kDa); Succinimide(1-Et,3-yl) = CCN1C(=O)CC(*)C1=O
Give bare numbers, in nM.

binder="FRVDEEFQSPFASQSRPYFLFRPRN-NH2 [NMU4]" measured=2.9

Dear reader, for each entry below, please note its EC50 (FLIPR).
1. Ac-C(Succinimide(1-Et,3-yl))ASQSRGYFLFRPRN-NH2 (SMILES CCN1C(=O)CC(SC[C@H](NC(C)=O)C(=O)N[C@@H](C)C(=O)N[C@@H](CO)C(=O)N[C@@H](CCC(N)=O)C(=O)N[C@@H](CO)C(=O)N[C@@H](CCCNC(=N)N)C(=O)NCC(=O)N[C@@H](Cc2ccc(O)cc2)C(=O)N[C@@H](Cc2ccccc2)C(=O)N[C@@H](CC(C)C)C(=O)N[C@@H](Cc2ccccc2)C(=O)N[C@@H](CCCNC(=N)N)C(=O)N2CCC[C@H]2C(=O)N[C@@H](CCCNC(=N)N)C(=O)N[C@@H](CC(N)=O)C(N)=O)C1=O) [NMU17]
2. Ac-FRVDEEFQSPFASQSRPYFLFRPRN-NH2 [NMU5]
3. Ac-C((PEG)2 40 kDa)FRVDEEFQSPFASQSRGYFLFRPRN-NH2 [NMU12]

Reply:
1: 1.2; 2: 2.3; 3: 1000
